# System: HeLa Kyoto
# protocolDescription: melting temperature (median over replicates), in situ; higher = more thermally stable
# settings: cell cycle stage: G1/S
quantity: melting temperature
Units required after the number.

Item MALNGAEVDDFSWEPPTEAETKVLQARRERQDRISRLMGDYLLRGYRMLGETCADCGTILLQDKQRKIYCVACQELDSDVDKDNPALNAQAALSQAREHQLASASELPLGSRPAPQPPVPRPEHCEGAAAGLKAAQGPPAPAVPPNTDVMACTQTALLQKLTWASAELGSSTSLETSIQLCGLIRACAEALRSLQQLQH [SSSCA1] was tested on HeLa Kyoto; the reported melting temperature is 53.3 °C

Item MADIIARLREDGIQKRVIQEGRGELPDFQDGTKATFHYRTLHSDDEGTVLDDSRARGKPMELIIGKKFKLPVWETIVCTMREGEIAQFLCDIKHVVLYPLVAKSLRNIAVGKDPLEGQRHCCGVAQMREHSSLGHADLDALQQNPQPLIFHMEMLKVESPGTYQQDPWAMTDEEKAKAVPLIHQEGNRLYREGHVKEAAAKYYDAIACLKNLQMKEQPGSPEWIQLDQQITPLLLNYCQCKLVVEEYYEVLDHCSSILNKYDDNVKAYFKRGKAHAAVWNAQEAQADFAKVLELDPALAPVVSRELRALEARIRQKDEEDKARFRGIFSH [AIP] was tested on HeLa Kyoto; the reported melting temperature is 49.3 °C

Item MATELEYESVLCVKPDVSVYRIPPRASNRGYRASDWKLDQPDWTGRLRITSKGKTAYIKLEDKVSGELFAQAPVEQYPGIAVETVTDSSRYFVIRIQDGTGRSAFIGIGFTDRGDAFDFNVSLQDHFKWVKQESEISKESQEMDARPKLDLGFKEGQTIKLCIGNITNKKGGASKPRTARGGGLSLLPPPPGGKVTIPPPSSSVAISNHVTPPPIPKSNHGGSDADILLDLDSPAPVTTPAPTPVSVSNDLWGDFSTASSSVPNQAPQPSNWVQF [NECAP1] was tested on HeLa Kyoto; the reported melting temperature is 51.5 °C

====

For each of the sequences below, state its melting temperature.
# System: HeLa Kyoto;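 further: HeLa Kyoto cells synchronized by double thymidine or nocodazole block, proteins quantified by TMT10plex mass spectrometry, three independent biological replicates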
# protocolDescription: melting temperature (median over replicates), in situ; higher = more thermally stable
# settings: cell cycle stage: mitosis
The reply should be a number in °C, with the unit left off.

Item MESNKDEAERCISIALKAIQSNQPDRALRFLEKAQRLYPTPRVRALIESLNQKPQTAGDQPPPTDTTHATHRKAGGTDAPSANGEAGGESTKGYTAEQVAAVKRVKQCKDYYEILGVSRGASDEDLKKAYRRLALKFHPDKNHAPGATEAFKAIGTAYAVLSNPEKRKQYDQFGDDKSQAARHGHGHGDFHRGFEADISPEDLFNMFFGGGFPSSNVHVYSNGRMRYTYQQRQDRRDNQGDGGLGVFVQLMPILILILVSALSQLMVSSPPYSLSPRPSVGHIHRRVTDHLGVVYYVGDTFSEEYTGSSLKTVERNVEDDYIANLRNNCWKEKQQKEGLLYRARYFGDTDMYHRAQKMGTPSCSRLSEVQASLHG [DNAJB12] was tested on HeLa Kyoto; the reported melting temperature is 50.4

Item MGGGWWWARAARLARLRFRRSLLPPQRPRSGGARGSFAPGHGPRAGASPPPVSELDRADAWLLRKAHETAFLSWFRNGLLASGIGVISFMQSDMGREAAYGFFLLGGLCVVWGSASYAVGLAALRGPMQLTLGGAAVGAGAVLAASLLWACAVGLYMGQLELDVELVPEDDGTASAEGPDEAGRPPPE [TMEM160] was tested on HeLa Kyoto; the reported melting temperature is 56.9

Item MAASGEPQRQWQEEVAAVVVVGSCMTDLVSLTSRLPKTGETIHGHKFFIGFGGKGANQCVQAARLGAMTSMVCKVGKDSFGNDYIENLKQNDISTEFTYQTKDAATGTASIIVNNEGQNIIVIVAGANLLLNTEDLRAAANVISRAKVMVCQLEITPATSLEALTMARRSGVKTLFNPAPAIADLDPQFYTLSDVFCCNESEAEILTGLTVGSAADAGEAALVLLKRGCQVVIITLGAEGCVVLSQTEPEPKHIPTEKVKAVDTTGAGDSFVGALAFYLAYYPNLSLEDMLNRSNFIAAVSVQAAGTQSSYPYKKDLPLTLF [RBKS] was tested on HeLa Kyoto; the reported melting temperature is 54.8

Item MAASALYACTKCTQRYPFEELSQGQQLCKECRIAHPIVKCTYCRSEFQQESKTNTICKKCAQNVKQFGTPKPCQYCNIIAAFIGTKCQRCTNSEKKYGPPQTCEQCKQQCAFDRKEEGRRKVDGKLLCWLCTLSYKRVLQKTKEQRKSLGSSHSNSSSSSLTEKDQHHPKHHHHHHHHHHRHSSSHHKISNLSPEEEQGLWKQSHKSSATIQNETPKKKPKLESKPSNGDSSSINQSADSGGTDNFVLISQLKEEVMSLKRLLQQRDQTILEKDKKLTELKADFQYQESNLRTKMNSMEKAHKETVEQLQAKNRELLKQVAALSKGKKFDKSGSILTSP [FAM76B] was tested on HeLa Kyoto; the reported melting temperature is 51.3

Item MNIRNARPEDLMNMQHCNLLCLPENYQMKYYFYHGLSWPQLSYIAEDENGKIVGYVLAKMEEDPDDVPHGHITSLAVKRSHRRLGLAQKLMDQASRAMIENFNAKYVSLHVRKSNRAALHLYSNTLNFQISEVEPKYYADGEDAYAMKRDLTQMADELRRHLELKEKGRHVVLGAIENKVESKGNSPPSSGEACREEKGLAAEDSGGDSKDLSEVSETTESTDVKDSSEASDSAS [NAA10] was tested on HeLa Kyoto; the reported melting temperature is 53.1
